Provide the reported normalised viability of each item.
Tested on: SK-BR-3
assay: normalised viability (% of control), CellTiter-Blue; higher = more viable cells (about 100 = DMSO control)
settings: 10000 nM; incubation time: 72 h
The reply should contain only the number, in %.

The reported normalised viability of the compound O=c1[nH]c(=O)n([C@H]2C[C@H](O)[C@@H](CO)O2)cc1F was 24

# normalised viability (compound: CN1CCN(c2ccc3nc(-c4c(N)c5c(F)cccc5[nH]c4=O)[nH]c3c2)CC1 ) is 72.9

Lab note: measured normalised viability of C#Cc1cccc(Nc2ncnc3cc(OC)c(OCCCCCCC(=O)NO)cc23)c1 was 2.82

Noted for COC1=CC(c2cc3ccccc3[nH]2)=N/C1=C\c1[nH]c(C)cc1C : its normalised viability reads 21.2

// normalised viability lookup, compound = O=C(c1ccc(OCCN2CCCCC2)cc1)c1c(-c2ccc(O)cc2)sc2cc(O)ccc12 , result: 103

###

System: MDA-MB-453
assay: normalised viability (% of control), CellTiter-Blue; higher = more viable cells (about 100 = DMSO control)
settings: 10 nM; incubation time: 72 h
For each entry below, report its normalised viability value.
Give just the number in %; leave the unit off.

Lab book: normalised viability of O=P(O)(NCCCl)NCCCl [Ifosfamide mustard] noted as 106

Looking up COc1cc(Nc2ncc(F)c(Nc3ccc4c(n3)NC(=O)C(C)(C)O4)n2)cc(OC)c1OC , I see its normalised viability listed as 106

Per the records, this compound ( O=c1[nH]cc(F)c(=O)[nH]1 ) has normalised viability equal to 116

Per the records, this compound ( COc1c(C)cnc(Cn2cnc3c(Cl)nc(N)nc32)c1C ) has normalised viability equal to 76.4

Record CN1CCN(c2ccc3nc(-c4c(N)c5c(F)cccc5[nH]c4=O)[nH]c3c2)CC1 . Reported normalised viability: 87.7

###

System: MDA-MB-436
assay: normalised response (% of control), CellTox Green; higher = less cell death (100 = DMSO, 0 = benzethonium chloride kill control)
settings: incubation time: 72 h
readoutKind: normalised response (%)
Express your answer in %, writing the number without its unit.

The reported normalised response of the compound COc1ccc(C2=N[C@@H](c3ccc(Cl)cc3)[C@@H](c3ccc(Cl)cc3)N2C(=O)N2CCNC(=O)C2)c(OC(C)C)c1 [Nutlin-3] (10000 nM) was 95

normalised response reading for CS(=O)(=O)CCNCc1ccc(-c2ccc3ncnc(Nc4ccc(OCc5cccc(F)c5)c(Cl)c4)c3c2)o1 [Lapatinib] (100 nM) : 91.4

Reported normalised response of COC(=O)C[C@](O)(CCCC(C)(C)O)C(=O)O[C@@H]1C(OC)=C[C@]23CCCN2CCc2cc4c(cc2[C@H]13)OCO4 [Omacetaxine] (100 nM) : 77.6

###

Tested on: CAL-51
assay: drug sensitivity score (DSS), CellTiter-Blue viability (DSS (AUC-based score)); higher = stronger viability inhibition; extreme values may be limits of the assay
settings: incubation time: 72 h
readoutKind: drug sensitivity score

// O=c1[nH]c(=O)n([C@H]2C[C@H](O)[C@@H](CO)O2)cc1F : drug sensitivity score value = 21.3

Measured drug sensitivity score, c1ccc(C2CN3CCSC3=N2)cc1 (configuration not stated) : 0

CCCC(CCC)C(=O)O has a reported drug sensitivity score of 0

Entry COc1cc(Nc2ncc(F)c(Nc3ccc4c(n3)NC(=O)C(C)(C)O4)n2)cc(OC)c1OC — recorded drug sensitivity score = 0

Value of drug sensitivity score reported for the compound CN1CCN(c2ccc3nc(-c4c(N)c5c(F)cccc5[nH]c4=O)[nH]c3c2)CC1 is 0

drug sensitivity score reading for CC(C)C[C@H](NC(=O)[C@H](Cc1ccccc1)NC(=O)c1cnccn1)B(O)O : 16.8

COc1ccc(C2=N[C@@H](c3ccc(Cl)cc3)[C@@H](c3ccc(Cl)cc3)N2C(=O)N2CCNC(=O)C2)c(OC(C)C)c1 yielded drug sensitivity score of 2.91
